system: LLC-PK1; test: Renoprotective activity in pig LLC-PK1 cells assessed as reduction in cisplatin-induced toxicity at 250 uM preincubated for 2 hrs followed by cisplatin challenge for 24 hrs by MTT assay; format: functional, Sus scrofa; design: scale not given: the % may be the effect or the level left
Hi there, I'd appreciate the recorded Activity for every entry that follows.
Write it as a number; the unit % goes unstated.

Looking up C=C(C)[C@@H]1CC[C@]2(C(=O)O)CC[C@]3(C)[C@H](CC[C@@H]4[C@@]5(C)CC[C@H](O)C(C)(C)[C@@H]5CC[C@]43C)[C@@H]12 , I found its Activity recorded as 80

Looking up C=C(C)[C@@H]1CC[C@]2(C)CC[C@]3(C)[C@H](CC[C@@H]4[C@@]5(C)CC[C@H](O)C(C)(C)[C@@H]5CC[C@]43C)[C@@H]12 , I found its Activity recorded as 80

Looking up C=C(C=O)[C@@H]1CC[C@]2(C(=O)O)CC[C@]3(C)[C@H](CC[C@@H]4[C@@]5(C)CC[C@H](O)C(C)(C)[C@@H]5CC[C@]43C)[C@@H]12 , I found its Activity recorded as 80

Looking up C=C(C)[C@@H]1CC[C@]2(CO)CC[C@]3(C)[C@H](CC[C@@H]4[C@@]5(C)CC[C@H](OC(C)=O)C(C)(C)[C@@H]5CC[C@]43C)[C@@H]12 , I found its Activity recorded as 80
